Experiment: AUC (0 to 6 hrs) in rat at 10 mg/kg, po
Type: ADME, organism-based, Plasma
Parameters: time < 6 hr, dose 10 mg/kg, route oral
Conditions: plasma
outcome_measure: AUC(0-t) at 6 h (ng·h/mL)

P. CC1(COc2c(N3CCN(S(=O)(=O)Cc4ccc(N)c(C(F)(F)F)c4)CC3)cnn(-c3cccc(Cl)c3)c2=O)CC1
Q. Cc1cc(CS(=O)(=O)N2CCN(c3cnn(-c4cc(F)cc(F)c4)c(=O)c3OCC3(C)CC3)CC2)ccc1N
[Q] Given the listed items, does P or Q have the lesser reported AUC(0-t) at 6 h? Kindly state the label of the option you pick.
[A] P
(P: 640 ng·h/mL, Q: 14500 ng·h/mL)

* * *

Assay: Cmax in rat at 10 mg/kg, po
Type: ADME, organism-based
Design: dose 10 mg/kg, route oral
Conditions: in vivo
outcome_measure: Cmax (ng/mL)

[[record]]
smiles_input = "CC1(COc2c(N3CCN(S(=O)(=O)Cc4ccc(N)cc4)CC3)cnn(-c3cccc(Cl)c3)c2=O)CC1"
outcome_measure = "Cmax"
units_text = "ng/mL"
meas_value = 1900

[[record]]
smiles_input = "Cc1cc(CS(=O)(=O)N2CCN(c3cnn(-c4cccc(Cl)c4)c(=O)c3OCC3(C)CC3)CC2)ccc1N"
outcome_measure = "Cmax"
units_text = "ng/mL"
meas_value = 3000


A. CCc1cc(CS(=O)(=O)N2CCN(c3cnn(-c4cccc(Cl)c4)c(=O)c3OCC3(C)CC3)CC2)ccc1N
B. CC(C)c1cc(CS(=O)(=O)N2CCN(c3cnn(-c4cccc(Cl)c4)c(=O)c3OCC3(C)CC3)CC2)ccc1N
[Q] # argmax over Cmax for candidates A and B Kindly state the label of the option you pick.
[A] A
(A: 2300 ng/mL, B: 700 ng/mL)

* * *

Molecular target: UniProt:O13383
Sequence (O13383 whole entry): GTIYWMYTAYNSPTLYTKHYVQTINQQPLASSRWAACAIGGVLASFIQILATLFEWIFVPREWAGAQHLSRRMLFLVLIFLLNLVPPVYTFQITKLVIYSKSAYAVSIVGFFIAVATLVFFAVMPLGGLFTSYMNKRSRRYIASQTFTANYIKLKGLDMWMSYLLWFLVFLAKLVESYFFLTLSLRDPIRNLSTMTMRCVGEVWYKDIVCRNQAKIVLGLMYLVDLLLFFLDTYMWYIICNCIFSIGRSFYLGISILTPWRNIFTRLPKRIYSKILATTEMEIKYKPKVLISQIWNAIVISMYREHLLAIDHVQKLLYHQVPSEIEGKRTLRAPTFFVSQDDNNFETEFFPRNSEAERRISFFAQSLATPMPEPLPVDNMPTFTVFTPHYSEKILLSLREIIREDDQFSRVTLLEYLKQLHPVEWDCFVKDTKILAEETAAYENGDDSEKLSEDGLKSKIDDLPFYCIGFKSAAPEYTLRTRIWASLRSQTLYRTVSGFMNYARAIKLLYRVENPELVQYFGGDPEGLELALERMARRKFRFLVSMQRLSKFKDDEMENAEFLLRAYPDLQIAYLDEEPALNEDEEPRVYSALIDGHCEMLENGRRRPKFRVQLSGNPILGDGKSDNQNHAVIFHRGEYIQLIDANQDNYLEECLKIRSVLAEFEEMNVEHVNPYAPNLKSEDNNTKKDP
Test: Inhibition of 1,3-beta-D-glucan synthase in Candida albicans BWP17 membranes
pIC50: −log10 of the molar value.
outcome_measure: pIC50

Consider the following illustrative entries.
[[record]]
molecule = "CC1(COc2c(N3CCN(S(=O)(=O)Cc4ccnc(N)c4)CC3)cnn(-c3cccc(Cl)c3)c2=O)CC1"
tested_system = "UniProt:O13383"
meas_value = 6.56

[[record]]
molecule = "O=c1c(OC2CCOCC2)c(N2CCN(S(=O)(=O)Cc3ccccc3)CC2)cnn1-c1cccc(Cl)c1"
tested_system = "UniProt:O13383"
meas_value = 6.04

[[record]]
molecule = "COc1cc(CS(=O)(=O)N2CCN(c3cnn(-c4cccc(Cl)c4)c(=O)c3OCC3(C)CC3)CC2)ccc1N"
tested_system = "UniProt:O13383"
meas_value = 6.98

[[record]]
molecule = "O=c1c(OC2CCCC2)c(N2CCN(S(=O)(=O)Cc3cc(Cl)cc(Cl)c3)CC2)cnn1-c1cccc(Cl)c1"
tested_system = "UniProt:O13383"
meas_value = 6.45

[[record]]
molecule = "O=c1c(OC2CCCC2)c(N2CCN(S(=O)(=O)Cc3ccccc3)CC2)cnn1-c1cc(F)cc(F)c1"
tested_system = "UniProt:O13383"
meas_value = 7.25


A. O=c1c(OC2CCCC2)c(N2CCN(S(=O)(=O)Cc3ccc(Cl)cc3)CC2)cnn1-c1cccc(Cl)c1
B. O=c1c(OC2CCC(O)C2)c(N2CCN(S(=O)(=O)Cc3ccccc3)CC2)cnn1-c1cccc(Cl)c1 (stereo not drawn)
[Q] Given the listed items, does A or B have the lesser reported pIC50? Kindly state the label of the option you pick.
[A] B

a. O=c1c(OC2CCCC2)c(N2CCN(S(=O)(=O)Cc3ccccc3)CC2)cnn1-c1cccc(Cl)c1
b. O=c1c(OC2CCCC2)c(N2CCN(S(=O)(=O)Cc3cccc(O)c3)CC2)cnn1-c1cc(F)cc(F)c1
[Q] # argmax over pIC50 for candidates a and b Kindly state the label of the option you pick.
[A] b
(b: 7.04, a: 6.42)

I. CC1(COc2c(N3CCN(S(=O)(=O)Cc4ccccc4)CC3)cnn(-c3cccc(Cl)c3)c2=O)CC1
II. CC1(COc2c(N3CCN(S(=O)(=O)Cc4ccc(N)c(C(N)=O)c4)CC3)cnn(-c3cccc(Cl)c3)c2=O)CC1
[Q] Given the listed items, does I or II have the lesser reported pIC50? Kindly state the label of the option you pick.
[A] II
(II: 6.29, I: 7.25)

* * *

Assay: Cmax in rat at 10 mg/kg, po
Type: ADME, organism-based
Design: dose 10 mg/kg, route oral
Details: in vivo
outcome_measure: Cmax (ng/mL)

[[record]]
smiles_input = "CC1(COc2c(N3CCN(S(=O)(=O)Cc4cccc(N)c4)CC3)cnn(-c3cccc(Cl)c3)c2=O)CC1"
outcome_measure = "Cmax"
meas_value = 1400


I. CC1(COc2c(N3CCN(S(=O)(=O)Cc4cccnc4N)CC3)cnn(-c3cccc(Cl)c3)c2=O)CC1
II. COc1cc(CS(=O)(=O)N2CCN(c3cnn(-c4cccc(Cl)c4)c(=O)c3OCC3(C)CC3)CC2)ccc1N
III. CC1(COc2c(N3CCN(S(=O)(=O)Cc4ccc(N)c(C(F)(F)F)c4)CC3)cnn(-c3cccc(Cl)c3)c2=O)CC1
[Q] Sort the 3 molecules by Cmax; largest first, smallest last. // format: requested-order list of labels
[A] II, I, III

* * *

Target: Beta-1,3-glucan synthase (Candida albicans)
Test: Inhibition of 1,3-beta-D-glucan synthase in Candida albicans BWP17 membranes
outcome_measure: IC50 (nM)

Consider the following illustrative entries.
[[record]]
smiles_input = "CC1(COc2c(N3CCN(S(=O)(=O)Cc4ccc(N)c(F)c4)CC3)cnn(-c3cc(F)cc(F)c3)c2=O)CC1"
units_text = "nM"
meas_value = 53.2

[[record]]
smiles_input = "CNc1ccc(CS(=O)(=O)N2CCN(c3cnn(-c4cccc(Cl)c4)c(=O)c3OCC3(C)CC3)CC2)cc1"
units_text = "nM"
meas_value = 17.9

[[record]]
smiles_input = "CC1(COc2c(N3CCN(S(=O)(=O)Cc4ccc(N)c(C(F)(F)F)c4)CC3)cnn(-c3cccc(Cl)c3)c2=O)CC1"
units_text = "nM"
meas_value = 637

[[record]]
smiles_input = "CCc1cc(CS(=O)(=O)N2CCN(c3cnn(-c4cccc(Cl)c4)c(=O)c3OCC3(C)CC3)CC2)ccc1N"
units_text = "nM"
meas_value = 315

[[record]]
smiles_input = "CN(C)c1ccc(CS(=O)(=O)N2CCN(c3cnn(-c4cccc(Cl)c4)c(=O)c3OCC3(C)CC3)CC2)cc1"
units_text = "nM"
meas_value = 87.4


I. CC1(COc2c(N3CCN(S(=O)(=O)Cc4ccc(N)cc4)CC3)cnn(-c3cccc(Cl)c3)c2=O)CC1
II. CC1(COc2c(N3CCN(S(=O)(=O)Cc4ccc(N)c(Cl)c4)CC3)cnn(-c3cc(F)cc(F)c3)c2=O)CC1
[Q] # argmax over IC50 for candidates I and II Kindly state the label of the option you pick.
[A] I
(I: 110 nM, II: 69 nM)

* * *

Tested on: Aspergillus fumigatus
Test: Antifungal activity against Aspergillus fumigatus ND158 by broth dilution method
Format: functional
Conditions: read-out: MEC
outcome_measure: minimal effective concentration (µg/mL)
The answer is to be given in µg/mL; state only the numeric part.

[[record]]
smiles_input = "CC1(COc2c(N3CCN(S(=O)(=O)Cc4ccc(N)cc4)CC3)cnn(-c3cccc(Cl)c3)c2=O)CC1"
outcome_measure = "minimal effective concentration"
meas_value = 4.2


Next compound, minimal effective concentration to be filled in.
[Q] What minimal effective concentration appears in the records for this compound with Aspergillus fumigatus? CN(C)c1ccc(CS(=O)(=O)N2CCN(c3cnn(-c4cccc(Cl)c4)c(=O)c3OCC3(C)CC3)CC2)cc1
[A] 16.7

// provenance: ChEMBL document CHEMBL2057100
